- SUBJECT OF TEST: UniProtKB Q9H773
- Sequence (Q9H773 whole entry): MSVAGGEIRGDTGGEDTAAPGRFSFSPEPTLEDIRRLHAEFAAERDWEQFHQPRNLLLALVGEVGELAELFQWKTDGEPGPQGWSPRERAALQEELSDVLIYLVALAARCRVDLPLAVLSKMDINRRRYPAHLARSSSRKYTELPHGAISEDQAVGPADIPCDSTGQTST
pIC50: −log10 of the molar value.

MOLECULE SMILES: O=C(c1ccccc1Cl)N1CCN(c2ccc([N+](=O)[O-])c(NC3CC3)c2)CC1
pIC50: 5.96

MOLECULE SMILES: CCNc1cc(N2CCN(C(=O)c3ccccc3C)CC2)ccc1[N+](=O)[O-]
pIC50: 6.09

MOLECULE SMILES: CC(C)(C)c1cc(=O)[nH]c(N2CCN(Cc3ccc4c(c3)OCO4)CC2)n1
pIC50: 5.96

MOLECULE SMILES: CCNc1cc(N2CCN(C(=O)c3ccc(CC)cc3)CC2)ccc1[N+](=O)[O-]
pIC50: 6.04

MOLECULE SMILES: CCc1c(C)nc(N2CCN(c3cccc(OC)c3)CC2)nc1O
pIC50: 5.85

MOLECULE SMILES: CS(=O)(=O)N1CCN(c2cnn(-c3ccccc3)c(=O)c2Cl)CC1
pIC50: 5.49
